# test-description: yeast display, Sf9 membrane polyspecificity reagent, FACS + sequencing; frameworks hold sequencing errors
quantity-name: polyreactivity (PSR sort gate)

# monomer-sequence, polyreactivity (PSR sort gate)
data = [
    ("QVQLEESGGGLVQAGGSLRLTCAASGRTIVYNAMGWYRQAPGKERELVAAIDGGTGSTYYADSVKGRFTISRDNAKNTVYLEMNCLKPEDTAVYYCAVETYGGGYPVTYDYWGQGTQVTVSS", "low polyreactivity"),
    ("QVQLQESGGGLVQAGGSLRLSCAASGAIFDGFNMGWYRQAPGKEGEFVAAISYGASTDYADSVKGRFTVSRDNAKNSVYLQMNSLKPEDTAVYYCAVYDELYHVLVYWGRGTQVTVSS", "low polyreactivity"),
    ("QVKLVESGGGLVQAGGSLRLSCAASGITFGYNAMGWDRQAPGKERELVAAITGGSTYYADSVKGRFTISRDNAKNTFYLQMNSLKPEDSAVYYCATDPRRFWVIYYYWGQGTQVTVSS", "low polyreactivity"),
    ("QVQLVESGVGLVNAGGSLRLSCAASGYIFSPNVMGWYRQAPGKERELVAAITRGGGTYYADSVKGRFTISRDNAKNTVYLHLNSLKPEDTAVYYCNEDYTLSVYGTTYCYNYWGQGTQVTVSS", "high polyreactivity"),
    ("QVQLVESGGGLVQAGGSLRLSCAASGSTFWFNAMGWYRQAPGKERELVAISGSVGSTYADSVKGRFTISRDNAKNTVYLQMNSLKPEDTAVYYCNADSVWYRNPWSFSPRYNYWGQGTQVTVSS", "low polyreactivity"),
    ("QVQLVESGGGLVQAGGSLRLSCAASGIIFHIYAMGWYRQAPGTERELVAAISTGSSTYYADSVKGRFTISRDNAKNTVYLQMNSLKPEDTAVYYCNAVSRYLWVKGFDYWGQGTQVTVSS", "low polyreactivity"),
    ("QVQLVESGAGLVQAGGSLRLSCAASGNTFYQYAMGWYRQAPGKERELVAAIDWSGGSTYADSVKGRFTISRDNAKNTVYLQMNSLKPEDTAVYYCEKYTYDYWGQGTQVTVSS", "low polyreactivity"),
    ("QVQLVESGGGLVQAGGSLRLSCAASGRTFTSNAMGWYRQAPGKERELVAAITRGGSTYYADSVKGRFTISRDNAKNTVYLQMNSLKPEDTAVYYCNAGIYFRRKRYDYWGQGTQVTVSS", "high polyreactivity"),
]

Req: Would you mind telling me what polyreactivity (PSR sort gate) value was observed for `QVQLVESGGGLVQAGGSLRLSCAASGITYRGYAMGWYRQAPGKERELVAAISSGGSTSYADSLKGRFTISRDNAKNTVYLQMNSLKPEDTAVYYCAKDDERKQGQYPPYDSWGQGTQVTVSS` ?
Resp: low polyreactivity

Req: Would you mind telling me what polyreactivity (PSR sort gate) value was observed for `QVQLVESGVGLVQAGGSLRLSCAASGRTFDYNAMGWYIQAPGKERELVAAITSSGGSTYYADSVKGRFTISRDNAKNTVYLQMNSLKPEDTAVYYCDTDGQSPYYIYYWGQGTQVTVSS` ?
Resp: low polyreactivity

Req: Would you mind telling me what polyreactivity (PSR sort gate) value was observed for `QVQLVESGGGLVQAGGSLLLSCAASGSTFPHYTMGWYSQAPGKEREWVAVISRSGRTYYADSVKGRFTISRDNAKNTVYLQMNSLKPEDTAVYYCAVLVGRLVWSYNHWGQGTQGTVSS` ?
Resp: high polyreactivity
